Assay Protocol: Selectivity index, ratio of IC50 for rat L6 cells to IC50 for Trypanosoma brucei rhodesiense STIB900
Assay type: functional, cell-based
Observable: selectivity index
Numbers only.

Below are worked cases with known answers.
INSERT INTO results (smiles, data_value) VALUES
  ('O=C1C=C(Oc2ccc(Cl)cc2F)C(=O)c2cc3ccccc3cc21', 12.4),
  ('Cc1ccc(OC2=CC(=O)c3ccccc3C2=O)cc1Br', 16.4),
  ('O=C1C=C(Oc2ccc(F)cc2Br)C(=O)c2cc3ccccc3cc21', 14.1),
  ('O=C1C=C(Oc2ccccc2)C(=O)c2cc3ccccc3cc21', 20),
  ('O=C1C=C(Oc2ccc(Br)cc2Br)C(=O)c2cc3ccccc3cc21', 15.4);

Now for the compound whose selectivity index we want.
The compound listed as "O=C1C=C(Oc2ccc(F)cc2Br)C(=O)c2ccccc21" shows selectivity index equal to 13.1

====

Assay Protocol: Selectivity index, ratio of IC50 for rat L6 cells to IC50 for Leishmania donovani MHOM-ET-67/L82
Assay type: functional, cell-based
Class (by selectivity index) -- class 1 (below 4), class 2 (4 to below 7), class 3 (7 or more)

State the band of "O=C1C=C(Oc2ccc(Br)cc2Br)C(=O)c2ccccc21"
class 3

Hey, which category is "O=C1C=C(Oc2ccc(F)cc2Br)C(=O)c2cc3ccccc3cc21" in, do you know?
class 1

// bin(item) where item = "O=C1C=C(Oc2ccc(Cl)cc2Cl)C(=O)c2cc3ccccc3cc21"
class 2

====

Tested on: Leishmania donovani
Assay Protocol: Antileishmanial activity against Leishmania donovani MHOM-ET-67/L82 amastigotes by microplate assay
Format: functional, organism-based
Assign IC50 to each entry below.
One number for each entry, in nM.

Solved entries (count: 5):
INSERT INTO results (smiles, study_system, data_value) VALUES
  ('Cc1ccc(OC2=CC(=O)c3ccccc3C2=O)cc1Br', 'Leishmania donovani', 920),
  ('O=C1C=C(Oc2ccc(Br)cc2Br)C(=O)c2cc3ccccc3cc21', 'Leishmania donovani', 470),
  ('O=C1C=C(Oc2ccc(Cl)cc2Cl)C(=O)c2ccccc21', 'Leishmania donovani', 1320),
  ('Cc1ccc(OC2=CC(=O)c3cc4ccccc4cc3C2=O)c(C)c1', 'Leishmania donovani', 550),
  ('O=C1C=C(Oc2ccc(Cl)cc2F)C(=O)c2ccccc21', 'Leishmania donovani', 700);

Attention now shifts to the item below.
Memo: "CCCCCCCCCCCCCCCCOP(=O)([O-])OCC[N+](C)(C)C" , reported IC50: 310

====

What IC50 was measured for each of the following?
Test system: Leishmania donovani
Assay Protocol: Antileishmanial activity against Leishmania donovani MHOM-ET-67/L82 amastigotes by microplate assay
Format: functional, organism-based
Numbers only, in nM.

Recorded results for 4 molecules are shown here.
INSERT INTO assay_data (smiles, observable, data_value) VALUES
  ('O=C1C=C(Oc2ccc(F)cc2F)C(=O)c2cc3ccccc3cc21', 'IC50', 280),
  ('O=C1C=C(Oc2ccc(F)cc2F)C(=O)c2ccccc21', 'IC50', 2290),
  ('O=C1C=C(Oc2ccccc2)C(=O)c2cc3ccccc3cc21', 'IC50', 340),
  ('O=C1C=C(Oc2ccc(F)cc2Br)C(=O)c2ccccc21', 'IC50', 1810);

State recorded IC50 for all listed molecules.
1. O=C1C=C(Oc2ccc(Br)cc2Br)C(=O)c2ccccc21
2. O=C1C=C(Oc2ccccc2)C(=O)c2ccccc21
3. O=C1C=C(Oc2ccc(Cl)cc2Cl)C(=O)c2cc3ccccc3cc21
4. Cc1ccc(OC2=CC(=O)c3ccccc3C2=O)c(C)c1
5. O=C1C=C(Oc2ccc(F)cc2Br)C(=O)c2cc3ccccc3cc21
6. O=C1C=C(Oc2ccc(Cl)cc2F)C(=O)c2cc3ccccc3cc21
7. Cc1ccc(OC2=CC(=O)c3cc4ccccc4cc3C2=O)cc1Br

[2370, 1260, 490, 510, 350, 530, 360]
